src = ChEMBL document CHEMBL1125164

Below, each entry is listed with its recorded inhibition in vivo at 1 mg/kg.
# System: Rattus norvegicus
# Assay overview: Tested in vivo for ability to inhibit sorbitol formation in the lens of a streptozotocinized rat model after oral administration at the dose of 1.0 mg/Kg
# Type: functional
# Cond: Lens of camera-type eye
Entry rule: numbers only, all in %.

Record request: inhibition in vivo at 1 mg/kg value, item O=C1NC(=O)[C@@]2(CCOc3ncc(Cl)cc32)N1 (racemic)
46.1

Which inhibition in vivo at 1 mg/kg reading was recorded for the molecule C[C@@H]1C[C@]2(NC(=O)NC2=O)c2cccnc2O1 (racemic) ?
33.9

Quick one: inhibition in vivo at 1 mg/kg for C[C@@H]1C[C@]2(NC(=O)NC2=O)c2cc(Br)cnc2O1 (racemic) ?
67.4

Look at this molecule and give its reported inhibition in vivo at 1 mg/kg. "C[C@H]1C[C@@]2(NC(=O)NC2=O)c2cc(Cl)cnc2O1"
-10.6
